# testMethodNotes: Tanguay_ZF_120hpf_PIG_legacy: (Legacy) Oregon State University Tanguay Lab 120 Hour Post-fertilization zebrafish Assay for Pigmentation Malformation (AID 2283650);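 also: dechorionated Tropical 5D zebrafish embryos exposed singly from 6 to 120 hpf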
Inconclusive results are not listed. The source made the active and inactive calls. The calls were made as follows: active = hit-call score of the fitted dose curve at least 0.9, where 1 is the maximum; inconclusive = response in the unintended direction; inactive = score below 0.9.
Use one of these outcomes when replying: Y = active, N = inactive

// known answers, use as guide
stdin: Hi, sorry to bother you, what did the test record for C#CCOS(=O)OC1CCCCC1Oc1ccc(C(C)(C)C)cc1 (stereo not drawn) ?
stdout: N

stdin: Hi, sorry to bother you, what did the test record for "COc1cnc(OC)n2nc(NS(=O)(=O)c3c(OCC(F)F)cccc3C(F)(F)F)nc12" ?
stdout: N

More entries:
stdin: Hi, sorry to bother you, what did the test record for "CCOP(=S)(OCC)SCn1c(=O)oc2cc(Cl)ccc21" ?
stdout: N

stdin: Hi, sorry to bother you, what did the test record for "CCCN(CCC)c1c([N+](=O)[O-])cc(S(N)(=O)=O)cc1[N+](=O)[O-]" ?
stdout: N

stdin: Hi, sorry to bother you, what did the test record for "COP(=S)(OC)Oc1nc(Cl)c(Cl)cc1Cl" ?
stdout: N

stdin: Hi, sorry to bother you, what did the test record for CCCC1COC(Cn2cncn2)(c2ccc(Cl)cc2Cl)O1 (stereo not drawn) ?
stdout: N

stdin: Hi, sorry to bother you, what did the test record for Cc1c(F)c(F)c(COC(=O)C2C(/C=C(\Cl)C(F)(F)F)C2(C)C)c(F)c1F (stereo not drawn) ?
stdout: Y

stdin: Hi, sorry to bother you, what did the test record for "N#Cc1cc(Br)c(O)c(Br)c1" ?
stdout: N
